# system name: TmPep1050 (Thermotoga maritima, UniProt Q9X0E0)
# Construct: recombinant TmPep1050 (TM1050 ORF)
# Sequence (Q9X0E0 1-331): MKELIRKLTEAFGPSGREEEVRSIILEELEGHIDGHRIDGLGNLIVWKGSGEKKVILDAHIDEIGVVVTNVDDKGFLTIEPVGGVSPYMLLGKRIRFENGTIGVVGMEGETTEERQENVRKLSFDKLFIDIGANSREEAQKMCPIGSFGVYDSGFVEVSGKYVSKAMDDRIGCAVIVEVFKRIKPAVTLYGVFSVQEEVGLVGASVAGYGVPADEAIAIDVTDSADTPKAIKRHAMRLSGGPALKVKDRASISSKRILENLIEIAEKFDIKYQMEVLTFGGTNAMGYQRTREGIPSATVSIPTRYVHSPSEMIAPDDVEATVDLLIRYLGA
# procedure summary: inhibition of leucine aminopeptidase activity of purified enzyme, apparent Ki
readout kind: pKi
Value format note: pKi is -log10 of concentration (mol/L); just state the number.

**Q:** Name the recorded pKi of the item CC(C)C[C@H](NC(=O)[C@@H](O)[C@H](N)Cc1ccccc1)C(=O)O in your answer.
**A:** 6.36
